- MEASURED_TARGET: hCMV gB (expressed in HEK293T cells) (human cytomegalovirus, UniProt P06473 32-906)
- Sequence (P06473 32-906 limits assumed): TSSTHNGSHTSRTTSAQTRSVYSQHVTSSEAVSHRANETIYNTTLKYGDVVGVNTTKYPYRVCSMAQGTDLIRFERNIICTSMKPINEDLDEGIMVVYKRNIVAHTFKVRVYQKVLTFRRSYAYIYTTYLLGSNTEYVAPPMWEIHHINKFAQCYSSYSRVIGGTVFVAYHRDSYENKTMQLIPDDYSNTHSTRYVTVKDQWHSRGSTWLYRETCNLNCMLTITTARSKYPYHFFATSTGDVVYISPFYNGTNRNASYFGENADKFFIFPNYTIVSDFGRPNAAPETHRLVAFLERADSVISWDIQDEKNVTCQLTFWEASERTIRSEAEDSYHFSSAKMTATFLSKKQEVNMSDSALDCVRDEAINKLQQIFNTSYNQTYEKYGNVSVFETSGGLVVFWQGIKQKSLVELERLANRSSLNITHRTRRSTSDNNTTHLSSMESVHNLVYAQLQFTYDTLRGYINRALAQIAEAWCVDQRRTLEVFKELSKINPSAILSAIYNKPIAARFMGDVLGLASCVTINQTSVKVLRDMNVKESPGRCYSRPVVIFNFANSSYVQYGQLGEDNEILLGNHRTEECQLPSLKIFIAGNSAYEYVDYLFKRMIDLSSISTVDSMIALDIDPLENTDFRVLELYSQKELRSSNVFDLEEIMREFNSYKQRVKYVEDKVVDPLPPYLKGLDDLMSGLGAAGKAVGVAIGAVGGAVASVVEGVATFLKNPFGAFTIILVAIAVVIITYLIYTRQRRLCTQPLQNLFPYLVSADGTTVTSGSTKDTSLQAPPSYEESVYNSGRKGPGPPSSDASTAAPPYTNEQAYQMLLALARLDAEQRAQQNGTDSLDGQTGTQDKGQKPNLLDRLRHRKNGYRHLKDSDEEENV
- MEASUREMENT_PROTOCOL: cell-based or functional assay
ASSAY_READOUT: 50% Neutralization ARPE

Task: For the binder shown here, 7H3 (antibody, V domains shown, human IgG; also called 7H3-biotin) VH: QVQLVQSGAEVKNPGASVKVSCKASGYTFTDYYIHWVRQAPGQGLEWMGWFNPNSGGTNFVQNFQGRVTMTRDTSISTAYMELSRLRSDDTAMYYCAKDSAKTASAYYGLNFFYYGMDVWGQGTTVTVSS VL: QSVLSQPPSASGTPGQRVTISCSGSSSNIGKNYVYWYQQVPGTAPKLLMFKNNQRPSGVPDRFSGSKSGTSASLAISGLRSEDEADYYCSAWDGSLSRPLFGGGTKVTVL , give the reported 50% Neutralization ARPE.
Output: > 2 µg/mL
